The measured values listed here are drawn from patent US20240294635A1.

# target of assay: CD47 on the red cell surface (Homo sapiens (Human), UniProt Q08722 19-323)
# test: flow cytometry on fixed red cells, antibody 10 µg/mL
measured parameter: MFI (MFI)
One number for each entry, in MFI.

Input Xi16E5 (antibody, human IgG4 S228P, kappa, V domains shown, mouse variable regions on human IgG4 (EU S228P) and human kappa constant regions; also called chimeric 16E5 antibody) VH: EVQLQQSGPELKKPGETVKISCKASGYTFTNYGMNWVKQVPGKGLKWMGWINTNTGEPTYAEEFKGRFAFSLETSARTAFLQINNLKNEDTATYFCTRFSHLRGPMDYWGQGASVTVSS VL: DAVMTQTPLSLPVSLGDQASISCRSSQSLVHSNGYTYLHWYLQKPGQSPKLLIYKVSNRFSGVPDRFSGSGSGTDFTLKISRLEAEDLGVYFCSQSTHVPPTFGGGTKLEIKR . Output MFI: 3320
